Cited source for all entries: ChEMBL document CHEMBL1133051

tested on: MCF7; assay: Inhibitory concentration of compound against Mer+ breast tumor cell line MCF-7; format: functional, cell-based; settings: Homo sapiens
pIC50: −log10 of the molar value.
parameter: pIC50

[I] CN1N=Nc2cc(C(=O)NCCN3CCOCC3)ccc2N(C)C1=O
[II] Cn1nnc2c(C(N)=O)ncn2c1=O [TEMOZOLOMIDE]
# input Returns the identifier with the smallest measured pIC50 among I and II . Record your answer as the label of the chosen record.
# output II
(II: 3.10, I: 4.10)
